# assay.target: Dihydrofolate reductase (Pneumocystis carinii)
# Sequence (P16184 whole entry): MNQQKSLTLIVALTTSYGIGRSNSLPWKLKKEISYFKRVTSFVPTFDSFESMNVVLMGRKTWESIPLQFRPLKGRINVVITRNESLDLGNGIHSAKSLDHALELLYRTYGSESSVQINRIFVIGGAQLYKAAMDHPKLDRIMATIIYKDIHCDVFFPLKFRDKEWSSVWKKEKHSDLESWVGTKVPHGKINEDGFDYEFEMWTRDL
pIC50: −log10 of the molar value.
Kind request: treat 5 as inclusive, so pIC50 at 5 or higher is Met, anything lower is Not met.

>>> label_value("CCc1nc(N)nc(N)c1-c1ccc(Cl)c(/N=N/N(C)CCO)c1")
"Met"
>>> label_value("CCc1nc(N)nc(N)c1-c1ccc(Cl)c(/N=N/N(C)CC2OCCO2)c1")
"Met"
>>> label_value("CCc1nc(N)nc(N)c1-c1ccc(Cl)c(N=[N+]=[N-])c1")
"Met"
>>> label_value("CCc1nc(N)nc(N)c1-c1ccc(Cl)c(/N=N/N(CCO)CCO)c1")
"Met"
>>> label_value("CCc1nc(N)nc(N)c1-c1ccc(Cl)c(/N=N/N2CCCCC2)c1")
"Not met"
>>> label_value("CCCN(CCO)/N=N/c1cc(-c2c(N)nc(N)nc2CC)ccc1Cl")
"Met"
>>> label_value("CCc1nc(N)nc(N)c1-c1ccc(Cl)c(/N=N/N(CCO)Cc2ccccc2)c1")
"Met"
>>> label_value("CCc1nc(N)nc(N)c1-c1ccc(Cl)c(/N=N/N2CCC(O)CC2)c1")
"Met"
>>> label_value("CCc1nc(N)nc(N)c1-c1ccc(Cl)c(/N=N/N2CCc3ccccc3C2)c1")
"Met"
>>> label_value("CCc1nc(N)nc(N)c1-c1ccc(Cl)c(/N=N/N2CCCC2)c1")
"Not met"
>>> label_value("CCc1nc(N)nc(N)c1-c1ccc(Cl)c(/N=N/N(C(C)(C)C)C(C)(C)C)c1")
"Not met"
>>> label_value("CCc1nc(N)nc(N)c1-c1ccc(Cl)c(/N=N/N(CCO)C(C)(C)C)c1")
"Met"

====

# assay.details: Selectivity index measured as the ratio of IC50 for rat liver DHFR to IC50 for Toxoplasma gondii DHFR.
property.label: Selectivity index

>>> result("CCc1nc(N)nc(N)c1-c1ccc(Cl)c(/N=N/N(C)CC2OCCO2)c1")
28
>>> result("CCc1nc(N)nc(N)c1-c1ccc(Cl)c(N=[N+]=[N-])c1")
0.5
>>> result("CCc1nc(N)nc(N)c1-c1ccc(Cl)c([N+](=O)[O-])c1")
1.1
>>> result("CCc1nc(N)nc(N)c1-c1ccc(Cl)c(/N=N/N(CCOC)CCOC)c1")
3

====

# assay.target: Bifunctional dihydrofolate reductase-thymidylate synthase (Toxoplasma gondii, UniProt Q07422)
# Sequence (Q07422 whole entry): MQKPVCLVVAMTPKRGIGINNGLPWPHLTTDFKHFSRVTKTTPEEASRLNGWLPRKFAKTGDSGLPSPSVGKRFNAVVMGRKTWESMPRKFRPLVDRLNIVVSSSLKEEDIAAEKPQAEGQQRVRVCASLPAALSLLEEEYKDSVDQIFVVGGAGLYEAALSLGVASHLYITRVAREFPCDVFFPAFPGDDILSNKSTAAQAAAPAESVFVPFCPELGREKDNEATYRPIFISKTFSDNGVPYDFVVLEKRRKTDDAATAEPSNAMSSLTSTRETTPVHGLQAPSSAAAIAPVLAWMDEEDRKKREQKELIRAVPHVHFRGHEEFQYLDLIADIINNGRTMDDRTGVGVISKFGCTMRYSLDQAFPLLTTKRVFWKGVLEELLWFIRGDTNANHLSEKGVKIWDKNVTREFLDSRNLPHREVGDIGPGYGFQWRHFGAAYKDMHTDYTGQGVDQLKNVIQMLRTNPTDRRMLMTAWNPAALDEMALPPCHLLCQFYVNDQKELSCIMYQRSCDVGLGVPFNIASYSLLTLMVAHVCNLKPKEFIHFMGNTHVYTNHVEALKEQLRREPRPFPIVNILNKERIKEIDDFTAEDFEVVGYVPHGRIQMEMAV
# assay.details: Inhibitory concentration against Toxoplasma gondii dihydrofolate reductase
pIC50: −log10 of the molar value.
Listing of entries alongside the reported pIC50.
property.label: pIC50

>>> result("CCc1nc(N)nc(N)c1-c1ccc(Cl)c(/N=N/N(CCOC)CCOC)c1")
5.06
>>> result("CCc1nc(N)nc(N)c1-c1ccc(Cl)c(N=[N+]=[N-])c1")
6.16
>>> result("CCc1nc(N)nc(N)c1-c1ccc(Cl)c([N+](=O)[O-])c1")
7.89
>>> result("CCc1nc(N)nc(N)c1-c1ccc(Cl)c(/N=N/N(C)C)c1")
6.51
>>> result("CCc1nc(N)nc(N)c1-c1ccc(N(C)Cc2ccccc2)c([N+](=O)[O-])c1")
7.04
>>> result("CCc1nc(N)nc(N)c1-c1ccc(Cl)c(/N=C/N(C)C)c1")
5.80
>>> result("CCc1nc(N)nc(N)c1-c1ccc(Cl)c(/N=N/N2CCOCC2)c1")
6.72
>>> result("CCc1nc(N)nc(N)c1-c1ccc(Cl)c([N+]#N)c1")
7.64

Data credit: ChEMBL document CHEMBL1130062
